// data source = ChEMBL document CHEMBL1152950

# Tested on: Caco-2
# Test protocol: Cytotoxicity against human Caco-2 cells after 48 hrs by SRB assay
# Format: functional, cell-based
# Recorded conditions: Caco-2, 48 h
Attribute measured: pIC50
Numbers only, as −log10 of the molar value.

>  <Compound>
CC[C@]1(O)C[C@@H]2CN(CCc3c([nH]c4ccccc34)[C@@](C(=O)OC)(c3cc4c(cc3OC)N(C)[C@H]3[C@@](O)(C(=O)OC)[C@H](OC(C)=O)[C@]5(CC)C=CCN6CC[C@]43[C@@H]65)C2)C1.O=S(=O)(O)O [VINBLASTINE SULFATE]

>  <pIC50>
4.16

$$$$
>  <Compound>
C[C@H]1O[C@@H](O[C@H]2CC[C@@]3(C)[C@@H](CC[C@]4(C)[C@@H]3C=C[C@]35OC[C@@]6(CCC(C)(C)C[C@H]63)[C@@H](O)C[C@]54C)[C@]2(C)CO)[C@H](O)[C@@H](O[C@@H]2O[C@H](CO)[C@@H](O)[C@H](O)[C@H]2O)[C@H]1O [SAIKOSAPONIN A]

>  <pIC50>
4.75

$$$$

Now look at this entry.
Request: Lab note: need pIC50 for C[C@H]1O[C@@H](O[C@H]2CC[C@@]3(C)[C@@H](CC[C@]4(C)[C@@H]3C=C[C@]35OC[C@@]6(CCC(C)(C)C[C@H]63)[C@@H](O)C[C@]54C)[C@]2(C)CO)[C@H](O[C@@H]2O[C@H](CO)[C@@H](O)[C@H](O)[C@H]2O)[C@@H](O[C@@H]2O[C@H](CO)[C@@H](O)[C@H](O)[C@H]2O)[C@H]1O [BUDDLEJASAPONIN IV] on Caco-2, anyone have it?
Result: 4.39
